Record form. Attribute: pKd. Fill in for each entry.
Biological target: TRPC6 channel (Homo sapiens, UniProt Q9Y210)
Sequence (Q9Y210 1-931): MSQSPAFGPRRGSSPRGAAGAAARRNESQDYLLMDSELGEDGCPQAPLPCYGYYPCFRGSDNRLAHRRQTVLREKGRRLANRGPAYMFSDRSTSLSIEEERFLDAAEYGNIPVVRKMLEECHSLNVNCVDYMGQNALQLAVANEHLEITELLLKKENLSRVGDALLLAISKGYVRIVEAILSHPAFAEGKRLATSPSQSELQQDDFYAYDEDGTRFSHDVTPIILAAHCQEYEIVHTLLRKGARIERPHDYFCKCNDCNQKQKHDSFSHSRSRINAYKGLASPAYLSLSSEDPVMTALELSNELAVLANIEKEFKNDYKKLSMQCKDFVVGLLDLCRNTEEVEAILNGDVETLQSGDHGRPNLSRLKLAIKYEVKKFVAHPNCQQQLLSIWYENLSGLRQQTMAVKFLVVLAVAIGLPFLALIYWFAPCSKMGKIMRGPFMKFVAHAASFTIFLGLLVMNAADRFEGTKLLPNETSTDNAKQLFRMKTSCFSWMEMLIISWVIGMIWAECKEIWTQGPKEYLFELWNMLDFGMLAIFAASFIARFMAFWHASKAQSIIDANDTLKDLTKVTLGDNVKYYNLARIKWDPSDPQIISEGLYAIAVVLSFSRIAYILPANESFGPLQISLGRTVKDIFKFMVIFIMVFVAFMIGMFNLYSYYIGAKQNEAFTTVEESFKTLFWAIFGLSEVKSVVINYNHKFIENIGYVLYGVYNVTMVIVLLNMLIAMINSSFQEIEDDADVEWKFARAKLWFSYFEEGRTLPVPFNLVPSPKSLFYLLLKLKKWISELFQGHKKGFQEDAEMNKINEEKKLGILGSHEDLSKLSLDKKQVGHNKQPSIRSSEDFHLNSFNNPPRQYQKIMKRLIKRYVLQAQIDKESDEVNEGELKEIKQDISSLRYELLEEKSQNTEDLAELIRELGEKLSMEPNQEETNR
One number for each entry, as −log10 of the molar value.

Below are worked cases with known answers.
molecule: Cn1c(C(=O)NCCC(=O)O)cc2ccccc21 [reference compound]
pKd: 4.53

molecule: Cn1c(C(=O)NCCCOC(=O)c2ccccc2)c(C=O)c2ccccc21
pKd: 4.72

Exercise: pKd for CC(=O)OCCCNC(=O)c1c(C=O)c2ccccc2n1C ?
Key: 4.92

###

target: TRPC1 protein (Homo sapiens, UniProt P48995)
Sequence (P48995 whole entry, species assumed): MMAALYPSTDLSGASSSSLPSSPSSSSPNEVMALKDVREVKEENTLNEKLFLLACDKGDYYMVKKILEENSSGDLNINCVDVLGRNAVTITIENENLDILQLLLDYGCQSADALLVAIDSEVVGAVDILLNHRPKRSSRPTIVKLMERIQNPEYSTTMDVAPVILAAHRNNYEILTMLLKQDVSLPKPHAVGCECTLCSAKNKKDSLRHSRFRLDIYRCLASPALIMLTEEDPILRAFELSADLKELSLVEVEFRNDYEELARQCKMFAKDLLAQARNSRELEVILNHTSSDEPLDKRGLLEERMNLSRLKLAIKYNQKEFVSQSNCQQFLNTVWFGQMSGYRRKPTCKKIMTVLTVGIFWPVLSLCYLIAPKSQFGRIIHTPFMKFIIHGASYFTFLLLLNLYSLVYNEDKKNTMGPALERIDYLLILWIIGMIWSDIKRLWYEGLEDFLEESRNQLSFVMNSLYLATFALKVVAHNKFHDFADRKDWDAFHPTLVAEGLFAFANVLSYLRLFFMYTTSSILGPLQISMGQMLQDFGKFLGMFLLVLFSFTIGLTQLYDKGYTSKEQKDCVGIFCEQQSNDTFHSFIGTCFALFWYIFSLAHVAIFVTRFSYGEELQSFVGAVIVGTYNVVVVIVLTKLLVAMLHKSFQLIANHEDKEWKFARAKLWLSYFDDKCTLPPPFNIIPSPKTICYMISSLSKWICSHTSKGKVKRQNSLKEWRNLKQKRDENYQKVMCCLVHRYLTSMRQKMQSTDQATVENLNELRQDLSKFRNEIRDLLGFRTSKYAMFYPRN
measure_name: Kd

Below are worked cases with known answers.
compound: Cn1c(C(=O)NCCCOC(=O)c2ccccc2)c(C=O)c2ccccc21
Kd: 2400 nM
//
compound: Cn1c(C(=O)NCCC(=O)O)cc2ccccc21 [reference compound]
Kd: 1940 nM

Exercise: Kd for CC(=O)OCCCNC(=O)c1c(C=O)c2ccccc2n1C ?
Key: 2940 nM
